# Test system: HL-60(TB) leukemia
# experiment.summary: NCI tumour cell line growth inhibition, 48 h; in the data active means GI50 below about 0.43 µM; inactive means the rest
Pick one and only one: True for active, False for inactive

// below: answered compounds
>>> print(df.to_string())
                                   compound  assigned_class
0  CSc1nc2c(c(=O)n1C)C(c1ccccc1)C1=C(N2)/C(=C/c2ccccc2)CCC1 (centres undefined)           False
1  COc1ccc(-c2c(-c3ccc(C#N)c(F)c3)nc(N3CCC(N)CC3)n(C)c2=O)cc1F           False
2  Fc1ccc(Nc2nc(Nc3ccc(-c4nc5ccccc5[nH]4)cc3)c3cn[nH]c3n2)cc1           False
3  C=C(C)C(=O)Nc1ccc(-c2c(-c3ccc(Oc4nccc(C)n4)c(F)c3)c3c(N)ncnc3n2C)cc1           False

Prompt: Per the records of this test, what outcome belongs to O=C1/C(=C/c2ccc(C(F)(F)F)cc2)COc2ccc(O)c(O)c21 ?
Completion: False

Prompt: Test call, this compound: O=C1Cc2cc(CCN3CCNCC3)c(Cl)cc2N1
Completion: False

Prompt: Check the results log: what was the call for COc1ccc2c(c1)C(=O)c1c-2n(CCCN(C)C)c(=O)c2cc([N+](=O)[O-])ccc12 ?
Completion: True

Prompt: Hey, what did the test say about CC/C=C\C[C@H]1C/C=C2/C(=O)C(Cl)=C[C@@H]2C/C=C\CCCC(=O)O1 ?
Completion: False

Prompt: How was Cc1cc(N(CCNc2ccnc3cc(Cl)ccc23)Cc2ccc3c(c2)OCO3)nc(N2CCCC2)n1 classified in this test?
Completion: False

* * *

# Tested on: HOP-62 NSCLC
# experiment.summary: NCI tumour cell line growth inhibition, 48 h
measured.attribute: TGI

molecule	reported.value
CCNC(=S)NNC(=O)c1ccccc1Nc1ccccc1C(=O)NNC(=S)NCC	> 100 µM
CC[C@]12C=CCN3CC[C@@]4(c5cc(Br)c(OC)cc5N(C)[C@H]4[C@@](O)(C(=O)NC(Cc4c[nH]c5ccccc45)C(=O)OC)[C@@H]1O)[C@@H]32 (stereo not given in full)	> 100 µM
N#Cc1c(N)nc(N2CCOCC2)c(C#N)c1-c1c(Cl)cccc1Cl	17.8 µM
COc1ccc([C@H]2CC3C(=O)N(c4ccc(OC)cc4)C(=O)C3c3[nH]c4ccccc4c32)cc1 (stereo not given in full)	> 100 µM
CN(C)c1ccc2[nH]c3c(C(N)=O)cc(=O)c(=O)c=3oc2c1	> 100 µM
O=S(O)c1cc(Cl)c(O)c(Cl)c1	> 100 µM

Prompt: Dear colleague, I am looking for the recorded TGI of the following molecule: CCCCCCCCN=C(NCCCCCCCC)SCc1cccc2ccccc12
Completion: 3.13 µM

Prompt: Param item = NC(=O)/N=C/c1c(O)c2ccccc2oc1=O ; retrieve measured TGI.
Completion: > 100 µM

Prompt: Consider the molecule shown here: COC(=O)c1c2c(cc3c1CC1(Cc4ccccc4C1)C3)CCC2 What is its recorded TGI?
Completion: > 100 µM

Prompt: Recorded TGI of COc1cc(O)c(C(=O)/C=C/c2ccc(OC)c(OCc3ccccc3)c2)c(OC)c1 , please.
Completion: > 100 µM

* * *

# System: COLO 205 colon
# experiment.summary: NCI tumour cell line growth inhibition, 48 h
measured.attribute: TGI (µM)
Note: unit µM is implicit; provide only the numeric part.

>>> print(df.to_string())
                               smiles_entry  measured_attribute  unit_of_measurement  reported_value
0  CC(=O)[CH-]C(=O)c1ccccc1.CC(=O)[CH-]C(=O)c1ccccc1.CC(=O)[CH-]C(=O)c1ccccc1.[Ga+3]                 TGI                   µM            32.3

Let's switch to this compound now.
Prompt: What value of TGI has been recorded for this entry: O=S(=O)(/N=C(\NO)Nc1ccc(Cl)cc1)c1cc2ccccc2s1
Completion: 29.6

* * *

# System: RPMI-8226 leukemia
# experiment.summary: NCI tumour cell line growth inhibition, 48 h
Recorded TGI values for a group of molecules are listed next.
Only the number, expressed in µM, is required.

>>> print(df.to_string())
                                   molecule  measured_attribute  reported_value
0  N#CC1=C(N)N(/N=C/c2ccco2)C(c2ccco2)C1(C#N)C#N (stereo not given)                 TGI              44

Prompt: Entry under review: O=C1/C(=C/c2ccc([N+](=O)[O-])o2)Oc2ccc(Cl)cc21 . Reported TGI?
Completion: 4.72

* * *

# Test system: PC-3 prostate
# experiment.summary: NCI tumour cell line growth inhibition, 48 h
measured.attribute: TGI

                                   compound  measured_attribute  reported_value
0  O=C1CN(c2cccc(C(F)(F)F)c2)C(=O)CN1CCN1CC(=O)N(c2cccc(C(F)(F)F)c2)CC1=O                 TGI        > 100 µM
1  O=C1/C(=C/c2ccc([N+](=O)[O-])o2)Oc2ccc(Cl)cc21                 TGI         5.08 µM
2           O=c1[nH]cnc2c1cnn2Cc1cnnn1COCCO                 TGI        > 100 µM
3  COc1ccc(-c2[nH]ncc2Nc2cc(OC)c(OC)c(OC)c2)cc1                 TGI        > 100 µM
4  O=C(NC1C/C(=N/O)c2c(Br)sc(Br)c21)C(F)(F)F (stereo unspecified)                 TGI         45.6 µM
5  COc1ccc(C(O)c2ccccn2)cc1 (stereo unspecified)                 TGI        > 100 µM

Prompt: Please provide the recorded TGI for CCOC(=O)c1cc(C)nc2c1c(=O)n(-c1ccccc1)c(=O)n2CCCCN1CCN(c2ncccn2)CC1 , tested on PC-3 prostate.
Completion: > 100 µM

Prompt: For the record O=C(CI)Nc1ccc(Br)cc1 , what value of TGI is listed for PC-3 prostate?
Completion: 6.22 µM

Prompt: Record lookup: for PC-3 prostate, what TGI belongs to O=C(O)c1nn(-c2ccccc2)nc1-c1nn(-c2ccccc2)nc1C(=O)O ?
Completion: > 100 µM

Prompt: Record lookup: for PC-3 prostate, what TGI belongs to CC/C=C\C[C@H]1C/C=C2/C(=O)C(Cl)=C[C@@H]2C/C=C\CCCC(=O)O1 ?
Completion: 0.986 µM

Prompt: Provide value of TGI for this record tested with PC-3 prostate: CC1=C(C(=O)Nc2ccc(Cl)c(Cl)c2)C(c2cccc(Cl)c2)NC(=S)N1 (stereo unspecified)
Completion: > 50 µM

* * *

Each entry below carries its recorded GI50.
# System: SF-268 CNS
# experiment.summary: NCI tumour cell line growth inhibition, 48 h

Observe how each entry below is paired with its result.
                               smiles_entry  measured_attribute  reported_value
0  CC(=O)[CH-]C(=O)c1ccccc1.CC(=O)[CH-]C(=O)c1ccccc1.CC(=O)[CH-]C(=O)c1ccccc1.[Ga+3]                GI50         11.6 µM
1           O=C1Cc2cc(CCN3CCNCC3)c(Cl)cc2N1                GI50         12.7 µM
2  Cc1cc(N2CCOCC2)nc(NCc2cc(Nc3ccnc4cc(Cl)ccc34)ccc2F)n1                GI50         1.42 µM

Prompt: Missing value: GI50, SF-268 CNS, entry COc1cc(C(=O)n2nc(N)c3c(C)cc(C)nc32)cc(OC)c1OC . Fill in?
Completion: > 100 µM

Prompt: What reported GI50 corresponds to COc1ccc2c(c1)/C(=N/OC(C)=O)c1c-2c(OC)nc2ccccc12 on SF-268 CNS?
Completion: > 100 µM

Prompt: Can you look up GI50 on SF-268 CNS for C=C(C)C(=O)Nc1ccc(-c2c(-c3ccc(Oc4nccc(C)n4)c(F)c3)c3c(N)ncnc3n2C)cc1 ?
Completion: 1.67 µM

Prompt: Under SF-268 CNS: GI50 value of O=C(Oc1c(Cl)cc(Cl)cc1Cl)c1ccccc1Nc1ccnc(C(F)(F)F)c1 ?
Completion: 3.92 µM

Prompt: # returns recorded GI50 (system: SF-268 CNS) for COc1ccc([I+]c2ccc(OC)cc2)cc1
Completion: 12.6 µM

* * *

# System: PC-3 prostate
# experiment.summary: NCI tumour cell line growth inhibition, 48 h
measured.attribute: TGI

Reference set, count: 3
                                   compound  reported_value
0              C=CCOC(=O)Cn1ccc(=O)[nH]c1=O        > 100 µM
1  COc1ccc(-c2oc3cc(O)c(OC)c(O)c3c(=O)c2O)cc1        > 100 µM
2  COC(=O)C1(Cc2ccccc2)Cc2cc3c(cc2C1O)CCC3 (configuration not stated)         37.3 µM

Prompt: Entry under review: O=C1Cc2cc(CCN3CCNCC3)c(Cl)cc2N1 . Reported TGI?
Completion: > 100 µM

Prompt: Item under review: NC1=Nc2ccccc2Sc2cccc(F)c21 . Reported TGI?
Completion: > 100 µM

Prompt: Endpoint output: TGI of COc1ccc(/C=C/c2ccnc3ccccc23)cc1OC . Value?
Completion: 36.4 µM

Prompt: Given the compound CSc1ncc2c(n1)-c1ccccc1OC2 , what is its reported TGI?
Completion: > 100 µM

Prompt: // returns reported TGI for input CSc1nc(SC)c2c(C)cn(COCCOC(=O)c3ccccc3)c2n1
Completion: > 100 µM

Prompt: What TGI value was documented for this compound, COc1ccc2c(c1)nnc1c3cccnc3[nH]c21 ?
Completion: > 100 µM
